system: human Factor 7 mRNA; test: Antisense inhibition of human Factor 7 mRNA in HepB3 cells, 50 nM antisense oligonucleotide, lipofectin; type: cell-based; details: lipofectin, 50 nM antisense oligonucleotide, approximately 24 hours, Factor 7 mRNA by real-time RT-PCR (RTS 2927), relative to untreated control
Strand notation (5' to 3'): a small letter for the sugar, then the base; units joined by * are phosphorothioate-linked, units joined directly phosphodiester-linked; [ ] holds rarer units or linkages, { } end groups; capitals alone tell only the bases. e = 2'-O-(2-methoxyethyl) (MOE); [5mC] = 5-methylcytosine; d = 2'-deoxy (DNA)

{"columns": ["substance", "% Inhibition"],
 "data": [
  ["416466 (antisense eT*eG*eT*eG*eG*dG*d[5mC]*d[5mC]*dT*d[5mC]*d[5mC]*dA*d[5mC]*dT*dG*eT*e[5mC]*e[5mC]*e[5mC]*e[5mC]) [compound 416466]", "57%"],
  ["416568 (antisense e[5mC]*eA*eT*eT*eG*dT*dG*d[5mC]*d[5mC]*dT*dG*dG*d[5mC]*dA*d[5mC]*eA*e[5mC]*eA*eG*eG) [compound 416568]", "14%"],
  ["416550 (antisense eT*eG*eG*e[5mC]*eT*dG*dG*d[5mC]*dT*dG*dA*dG*dG*dA*dG*eA*e[5mC]*eA*eA*eT) [compound 416550]", "55%"],
  ["416537 (antisense eT*eG*eA*e[5mC]*e[5mC]*dA*d[5mC]*dT*d[5mC]*dT*dT*d[5mC]*d[5mC]*dG*dA*eG*e[5mC]*eA*eG*e[5mC]) [compound 416537]", "55%"],
  ["416477 (antisense e[5mC]*eA*eG*e[5mC]*e[5mC]*dT*dG*dA*dG*dG*d[5mC]*d[5mC]*dA*dG*d[5mC]*eA*eG*eA*eT*e[5mC]) [compound 416477]", "74%"],
  ["416489 (antisense eG*eT*eG*e[5mC]*eA*dG*d[5mC]*dT*dT*dG*d[5mC]*d[5mC]*dA*dG*dG*eT*e[5mC]*e[5mC]*eT*e[5mC]) [compound 416489]", "38%"],
  ["416507 (antisense eG*eG*eT*eT*eA*d[5mC]*dT*dG*dA*dG*d[5mC]*dG*d[5mC]*dG*dG*eA*eA*eG*eA*eA) [compound 416507]", "73%"],
  ["416473 (antisense e[5mC]*e[5mC]*e[5mC]*eT*eG*d[5mC]*d[5mC]*d[5mC]*d[5mC]*dT*d[5mC]*dT*dG*dT*d[5mC]*e[5mC]*eA*eG*e[5mC]*eG) [compound 416473]", "61%"],
  ["416441 (antisense eA*eG*eA*eT*eA*dT*dA*dG*dG*dA*d[5mC]*dT*dG*dG*dA*eG*e[5mC]*eT*eG*eG) [compound 416441]", "32%"],
  ["416531 (antisense eA*eG*eA*eT*eG*dA*d[5mC]*d[5mC]*dA*dG*d[5mC]*dA*dG*dG*dA*eA*eG*e[5mC]*e[5mC]*eT) [compound 416531]", "19%"],
  ["416513 (antisense e[5mC]*eT*eG*eA*eT*dG*dT*dG*dA*dA*dA*dA*d[5mC]*d[5mC]*dG*eG*e[5mC]*eA*eT*eG) [compound 416513]", "37%"],
  ["416454 (antisense e[5mC]*eG*eT*eG*e[5mC]*dT*d[5mC]*dG*d[5mC]*d[5mC]*d[5mC]*dA*dG*d[5mC]*dA*e[5mC]*e[5mC]*eG*e[5mC]*eG) [compound 416454]", "56%"],
  ["416445 (antisense eT*eA*e[5mC]*eT*eG*d[5mC]*dT*d[5mC]*dA*d[5mC]*dA*dG*d[5mC]*d[5mC]*dG*e[5mC]*e[5mC]*eG*eT*eT) [compound 416445]", "57%"],
  ["416561 (antisense eG*eG*eT*eG*eT*dG*dT*dT*d[5mC]*d[5mC]*d[5mC]*dA*dT*dA*dA*eA*eA*e[5mC]*eT*eT) [compound 416561]", "16%"],
  ["416431 (antisense eA*eG*eG*eG*eA*dG*d[5mC]*d[5mC]*d[5mC]*dG*dG*d[5mC]*d[5mC]*dG*d[5mC]*eA*eG*e[5mC]*eT*e[5mC]) [compound 416431]", "25%"],
  ["407910 (antisense eA*eG*eT*e[5mC]*e[5mC]*dT*dT*dG*d[5mC]*dT*dG*d[5mC]*d[5mC]*dA*dT*e[5mC]*e[5mC]*eG*eA*eG) [compound 407910]", "72%"],
  ["416510 (antisense eG*eA*e[5mC]*eG*eA*dG*dG*d[5mC]*d[5mC]*dT*d[5mC]*dA*dG*dG*dT*eG*eG*eA*e[5mC]*eG) [compound 416510]", "30%"],
  ["416554 (antisense eA*eA*eA*eG*eA*dT*d[5mC]*d[5mC]*d[5mC]*dA*d[5mC]*d[5mC]*dT*d[5mC]*dA*eA*eA*eG*eA*eG) [compound 416554]", "7%"],
  ["416447 (antisense e[5mC]*eA*eT*eG*eG*dA*dT*dA*dT*dT*d[5mC]*dA*dA*d[5mC]*dT*eG*eT*eG*eG*eG) [compound 416447]", "17%"],
  ["416432 (antisense eA*eG*e[5mC]*eA*e[5mC]*dT*dG*d[5mC]*dT*d[5mC]*d[5mC]*dT*d[5mC]*d[5mC]*dT*eT*eG*e[5mC]*eA*e[5mC]) [compound 416432]", "44%"],
  ["416522 (antisense eG*eG*e[5mC]*eT*eG*dA*dG*dA*dA*dT*dT*dG*d[5mC]*d[5mC]*d[5mC]*eA*eG*eG*eG*e[5mC]) [compound 416522]", "25%"]
]}

----------
tested on: human Factor 7 mRNA; assay: Dose-dependent antisense inhibition of human Factor 7 in HepB3 cells, electroporation; assay type: cell-based; settings: 50 μM, approx. 16 hours (Table 15, Example 7)
Strand notation (5' to 3'): a small letter for the sugar, then the base; units joined by * are phosphorothioate-linked, units joined directly phosphodiester-linked; [ ] holds rarer units or linkages, { } end groups; capitals alone tell only the bases. e = 2'-O-(2-methoxyethyl) (MOE); [5mC] = 5-methylcytosine; d = 2'-deoxy (DNA)
endpoint.label: percent inhibition of Factor 7 mRNA, relative to untreated control cells

{"columns": ["substance", "reading"],
 "data": [
  ["422150 (antisense eG*e[5mC]*eA*dT*dG*dG*dT*dG*dA*dT*dG*d[5mC]*dT*dT*d[5mC]*dT*dG*eA*eA*eT) [compound 422150]", "68%"],
  ["422229 (antisense eA*eT*dG*d[5mC]*dA*dT*dG*dG*dT*dG*dA*dT*dG*d[5mC]*dT*eT*e[5mC]*eT*eG*eA) [compound 422229]", "65%"],
  ["422296 (antisense e[5mC]*e[5mC]*dG*dA*dG*dT*dT*d[5mC]*dT*dG*d[5mC]*dA*dG*dG*dA*eG*e[5mC]*eG*eG*e[5mC]) [compound 422296]", "82%"],
  ["422130 (antisense eG*e[5mC]*e[5mC]*eT*eG*dA*dG*dG*d[5mC]*d[5mC]*dA*dG*d[5mC]*dA*dG*eA*eT*e[5mC]*eA*e[5mC]) [compound 422130]", "73%"],
  ["407939 (antisense eT*eG*e[5mC]*eA*eG*d[5mC]*d[5mC]*d[5mC]*dG*dG*d[5mC]*dA*d[5mC]*d[5mC]*d[5mC]*eA*eG*e[5mC]*eG*eA) [compound 407939]", "68%"],
  ["422087 (antisense e[5mC]*eA*eT*eG*e[5mC]*dA*dT*dG*dG*dT*dG*dA*dT*dG*d[5mC]*eT*eT*e[5mC]*eT*eG) [compound 422087]", "72%"],
  ["422096 (antisense eA*eG*eA*e[5mC]*eA*dA*dT*dG*dG*dT*d[5mC]*dA*dG*dG*dG*e[5mC]*eT*eG*eG*eT) [compound 422096]", "62%"]
]}

----------
Each entry below carries its recorded % Inhibition.
test system: human Factor 7 mRNA; test: Antisense inhibition of human Factor 7 with short (14-mer) oligonucleotides in HepB3 cells, electroporation 1,000 nM; type: cell-based; details: electroporation, 1,000 nM antisense oligonucleotide, approximately 24 hours, Factor 7 mRNA relative to untreated control cells
Strand notation (5' to 3'): a small letter for the sugar, then the base; units joined by * are phosphorothioate-linked, units joined directly phosphodiester-linked; [ ] holds rarer units or linkages, { } end groups; capitals alone tell only the bases. e = 2'-O-(2-methoxyethyl) (MOE); [5mC] = 5-methylcytosine; d = 2'-deoxy (DNA)
endpoint.label: % Inhibition

{"columns": ["substance", "system.under.test", "reading"],
 "data": [
  ["435481 (antisense eG*eG*dG*dT*d[5mC]*dA*dT*d[5mC]*dA*dG*d[5mC]*d[5mC]*eG*eG) [compound 435481]", "human Factor 7 mRNA", "50%"],
  ["435752 (antisense eT*eG*d[5mC]*dA*dG*d[5mC]*dT*dT*dG*d[5mC]*d[5mC]*dA*eG*eG) [compound 435752]", "human Factor 7 mRNA", "12%"],
  ["435499 (antisense e[5mC]*eT*dG*dG*dG*dA*dG*dA*d[5mC]*d[5mC]*d[5mC]*dT*eG*eG) [compound 435499]", "human Factor 7 mRNA", "59%"],
  ["435489 (antisense e[5mC]*eT*dG*dG*dT*dG*dT*dA*d[5mC]*dA*d[5mC]*d[5mC]*e[5mC]*e[5mC]) [compound 435489]", "human Factor 7 mRNA", "72%"],
  ["435639 (antisense eT*e[5mC]*d[5mC]*dA*dG*dA*dA*d[5mC]*dA*dG*d[5mC]*dT*eT*e[5mC]) [compound 435639]", "human Factor 7 mRNA", "31%"],
  ["435643 (antisense e[5mC]*eT*dT*dG*d[5mC]*dA*dG*dG*dA*dG*d[5mC]*d[5mC]*e[5mC]*e[5mC]) [compound 435643]", "human Factor 7 mRNA", "51%"],
  ["435648 (antisense eG*eA*dA*dG*d[5mC]*dA*dG*dA*dT*dA*dT*dA*eG*eG) [compound 435648]", "human Factor 7 mRNA", "0%"],
  ["435838 (antisense eT*e[5mC]*d[5mC]*dA*dT*dG*dG*dA*d[5mC]*dA*d[5mC]*dT*eA*eA) [compound 435838]", "human Factor 7 mRNA", "29%"],
  ["435802 (antisense eG*eT*d[5mC]*dA*d[5mC]*d[5mC]*dT*dA*dG*dA*d[5mC]*d[5mC]*eA*eA) [compound 435802]", "human Factor 7 mRNA", "61%"],
  ["435649 (antisense eA*eG*dG*d[5mC]*dA*dG*dA*dA*dG*d[5mC]*dA*dG*eA*eT) [compound 435649]", "human Factor 7 mRNA", "21%"],
  ["435825 (antisense e[5mC]*eT*dG*dG*dT*dT*dT*dT*dG*dG*dA*dG*eG*eA) [compound 435825]", "human Factor 7 mRNA", "0%"],
  ["435831 (antisense eG*eA*dT*d[5mC]*dT*dT*d[5mC]*dA*d[5mC]*dA*dT*dA*eG*e[5mC]) [compound 435831]", "human Factor 7 mRNA", "51%"],
  ["435826 (antisense eA*eA*dG*dT*dG*dG*d[5mC]*dT*dG*dG*d[5mC]*dT*eG*eA) [compound 435826]", "human Factor 7 mRNA", "27%"]
]}
